study_system: Rap guanine nucleotide exchange factor 3 (Homo sapiens) (UniProt O95398)
Sequence (O95398 whole entry, looked up): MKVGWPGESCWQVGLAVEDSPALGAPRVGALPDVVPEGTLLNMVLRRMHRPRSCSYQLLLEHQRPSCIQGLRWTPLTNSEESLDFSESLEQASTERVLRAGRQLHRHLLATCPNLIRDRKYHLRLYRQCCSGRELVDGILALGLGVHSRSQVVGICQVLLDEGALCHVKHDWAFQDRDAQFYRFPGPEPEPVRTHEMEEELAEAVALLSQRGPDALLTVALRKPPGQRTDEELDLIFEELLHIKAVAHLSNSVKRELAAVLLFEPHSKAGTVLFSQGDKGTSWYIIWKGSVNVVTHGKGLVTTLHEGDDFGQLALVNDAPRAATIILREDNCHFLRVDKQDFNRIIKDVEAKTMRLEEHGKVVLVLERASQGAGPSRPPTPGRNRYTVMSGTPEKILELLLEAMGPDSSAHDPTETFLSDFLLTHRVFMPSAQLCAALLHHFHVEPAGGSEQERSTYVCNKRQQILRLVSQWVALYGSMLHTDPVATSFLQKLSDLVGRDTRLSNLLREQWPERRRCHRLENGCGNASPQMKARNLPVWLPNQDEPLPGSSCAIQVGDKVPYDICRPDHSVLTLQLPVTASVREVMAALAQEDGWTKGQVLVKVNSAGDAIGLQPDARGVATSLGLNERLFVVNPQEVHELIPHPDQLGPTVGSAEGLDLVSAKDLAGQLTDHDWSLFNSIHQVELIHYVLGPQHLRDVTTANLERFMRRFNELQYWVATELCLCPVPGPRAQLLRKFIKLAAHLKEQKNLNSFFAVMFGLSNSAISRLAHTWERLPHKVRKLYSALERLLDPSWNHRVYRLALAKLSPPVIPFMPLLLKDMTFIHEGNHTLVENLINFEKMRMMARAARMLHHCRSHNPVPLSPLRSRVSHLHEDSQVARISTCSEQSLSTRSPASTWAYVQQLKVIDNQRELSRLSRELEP
assay_details: Confirmatory qHTS for agonist of cAMP-regulated guanine nucleotide exchange factor 3 (EPAC1) (AID 1645881); also: nearly all actives have a fitted effect of over 75% in size;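 as to activation: EPAC1 catalysed release of BODIPY-GDP from Rap1B seen as fluorescence loss; 100% = effect of cAMP agonist control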
experimental_setup: EPAC1 Rap1B BODIPY-GDP exchange fluorescence; series mostly up to 154 µM
Results filed as inconclusive are left out. Activity calls are given as the source filed them. Calls follow the shape of the dose curve; as a rule, active = well fitted activation curve with a large enough effect; inconclusive = small, poorly fitted or top-dose-only effect; inactive = no such curve, though single readings can be large or run the other way.
Outcome codes: label 1 = active, label 0 = inactive

>  <compound>
Cc1cc(C)c(S(=O)(=O)N2CCCCC2CCNC(=O)C(=O)NCC2CCCO2)c(C)c1 (configuration not stated)

>  <category_label>
label 0

$$$$
>  <compound>
CCN(CC(=O)Nc1c(F)cccc1F)C(=O)CCc1nc2sc3c(c2c(=O)[nH]1)CCCC3

>  <category_label>
label 0

$$$$
>  <compound>
CC1(C)Cc2c(C#N)c(N3CCN(C(=O)c4ccccc4Cl)CC3)nc(-c3ccco3)c2CS1

>  <category_label>
label 0

$$$$
>  <compound>
COc1cccc(CNC(=O)CCC(=O)N2CC(C)Sc3ccccc32)c1 (configuration not stated)

>  <category_label>
label 0

$$$$
>  <compound>
O=C(c1ccccc1)N1CCN(CCc2ccccn2)CC1

>  <category_label>
label 0

$$$$
>  <compound>
N#Cc1cc(NC(=O)c2ccc(Cl)cc2)ccc1Sc1ccccc1

>  <category_label>
label 0

$$$$
>  <compound>
COc1ccc2c(c1)cc(C(=O)N/N=C/c1c(O)c(C(=O)O)cc3ccccc13)n2C

>  <category_label>
label 0

$$$$
>  <compound>
CC1=NOC(=O)/C1=C\c1ccc(-c2cc(Cl)ccc2Cl)o1

>  <category_label>
label 0

$$$$
>  <compound>
COC(=O)C(CC(=O)c1ccc(C)cc1)n1cccn1 (configuration not stated)

>  <category_label>
label 0

$$$$
>  <compound>
CCOC(=O)c1ccccc1NC(=O)CSc1nccn1Cc1ccco1

>  <category_label>
label 0

$$$$
>  <compound>
Cn1cc(C(=O)N/N=C/C2=C(N3CCOCC3)C(=C\c3ccccc3)/CC2)ccc1=O

>  <category_label>
label 0

$$$$
>  <compound>
CN1CCC/C1=C/C=C1\SC(=S)NC1=O

>  <category_label>
label 1

$$$$
>  <compound>
COc1cc2cc(CNc3ccc(C)cc3)c(=O)n(CC(=O)Nc3ccc(F)cc3F)c2cc1OC

>  <category_label>
label 0

$$$$
>  <compound>
CC1Sc2ccc(C(=O)OCc3ccccc3Cl)cc2NC1=O (configuration not stated)

>  <category_label>
label 0

$$$$
>  <compound>
CC1Cc2cc(C(=O)O)ccc2O1 (configuration not stated)

>  <category_label>
label 0

$$$$
>  <compound>
CCN(CC)c1ccc2cc(-c3nnc(Nc4ccc(C)cc4)s3)c(=O)oc2c1

>  <category_label>
label 1

$$$$
>  <compound>
CC1=CC2=NC(=O)/C(=C\c3cccn3CCOc3ccc(C)c(C)c3)C(=N)N2O1

>  <category_label>
label 0

$$$$
>  <compound>
Cc1[nH]c2ccccc2c1/C=C/c1ccnc2ccccc12

>  <category_label>
label 0

$$$$
>  <compound>
Cn1c(=O)c2c(-c3ccccc3Br)n(CCc3ccccc3)cc2n(C)c1=O

>  <category_label>
label 0

$$$$
>  <compound>
CN(C(=O)COC(=O)/C=C/c1ccc2c(c1)OCO2)c1c(N)n(Cc2ccccc2)c(=O)[nH]c1=O

>  <category_label>
label 0

$$$$
>  <compound>
O=C(Nc1cccc(Cl)c1)C1CCCN(C2=NS(=O)(=O)c3ccccc32)C1 (configuration not stated)

>  <category_label>
label 0

$$$$
>  <compound>
NC(=O)c1cc2ccccc2o/c1=N\NC(=O)c1ccncc1

>  <category_label>
label 0

$$$$
